# credit: PubChem BioAssay AID248

# Test system: L1210 leukemia ip in BDF1 mice, survival T/C
# Procedure text: NCI In Vivo Anticancer Drug Screen. Data for tumor model L1210 Leukemia (intraperitoneal) in B6D2F1 (BDF1) mice
# Test context: endpoint: mean survival time; dose: 100.0 mg/kg/injection; schedule: Q04DX002 (ip); vehicle: saline with Tween-80; higher = longer survival
Toxic doses and inconclusive results are not listed.
Endpoint label: T/C

# count of solved cases: 2
[[record]]
compound = "CC1(C)OC2OC(C(O)c3cn(-c4ccccc4)nn3)C(O)C2O1 (stereo not drawn)"
endpoint_label = "T/C"
reported = "97 % of control"

[[record]]
compound = "Cc1[nH]c2ccc(N=CN(C)C)cc2c1C"
endpoint_label = "T/C"
reported = "94 % of control"


Now let's try a different one.
input: I would be grateful if you could share the reported T/C for `O=C1c2ccccc2C(=O)c2cc3nc4c5ccccc5c5ccccc5c4nc3cc21` .
output: 103 % of control
